B1: HSP90AB1 (parent)
chain: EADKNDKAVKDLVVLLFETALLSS

Variants of: B1
protocol details: protein stability index of a GFP-peptide fusion (GPS, HEK-293T) (PSI 1-6); higher = more stable;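 also: lentivirally expressed fusions sorted by FACS into six bins by GFP to DsRed ratio, PSI derived from sequencing read proportions per bin multiplied by bin number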
condition set: c terminus: a fixed tail appended
property name: protein stability index
One number for each entry.

Study these solved cases before continuing.
{"columns": ["mutation", "protein stability index"],
 "data": [
  ["V14F", 1.98],
  ["K7D", 2],
  ["T19R", 1.99]
]}

Now for the variant whose protein stability index we want.
Qu. Consider the variant L15I and give its measured protein stability index.
Ans. 1.95

Data credit: the supplement of paper PMC10567573
